tested on: Tadpoles; test: Tadpole movement suppression (anesthetic efficacy); format: in vivo; settings: Concentration (mM): 250
Entries and their Movement suppressed (%)
# unit: % | format: bare number

INSERT INTO measurements (compound, units_label, quantitative_result) VALUES
  ('CCC(C(=O)O)C(=O)O', '%', 100),
  ('CCC(C)C(=O)C(=O)O (centres unmarked)', '%', 33),
  ('CCO [Ethanol control, ethanol, reference compound]', '%', 33),
  ('CC(C)(C(=O)O)C(=O)O', '%', 60);

--- query ---
Form: compound = C[C@@H](O)CC(=O)O [R-3-hydroxybutyric acid, (R)-3-Hydroxybutanoic acid] ; Movement suppressed (%) = 0
